biological target: T1, human PCSK9 (human, UniProt Q8NBP7 31-692); test: PCSK9:EGFA FRET 1, competition
T1 construct: also called hPCSK9; huPCSK9
reported.metric: pIC50
One number for each entry, as −log10 of the molar value.

# binder, pIC50
measured = [
    ("PCSK9-PKE2 tandem 4472_E05 (designed binder, not shown: small tags and cut ends, The two parts are one polypeptide in the real molecule, joined by the undisclosed linker R; they are given here as separate chains.) PCSK9 10Fn3: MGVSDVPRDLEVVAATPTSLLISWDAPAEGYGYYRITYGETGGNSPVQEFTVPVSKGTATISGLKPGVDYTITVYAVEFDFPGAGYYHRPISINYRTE PKE2 10Fn3: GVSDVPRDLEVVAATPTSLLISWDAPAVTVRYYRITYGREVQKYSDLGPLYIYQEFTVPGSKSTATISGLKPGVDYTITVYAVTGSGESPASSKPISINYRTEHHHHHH", 8.25),
    ("PCSK9-PKE2 tandem 4472_B09 (designed binder, not shown: small tags and cut ends, The two parts are one polypeptide in the real molecule, joined by the undisclosed linker K; they are given here as separate chains.) PCSK9 10Fn3: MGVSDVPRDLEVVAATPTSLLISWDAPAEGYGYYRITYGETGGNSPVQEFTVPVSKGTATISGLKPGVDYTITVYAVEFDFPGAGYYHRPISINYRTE PKE2 10Fn3: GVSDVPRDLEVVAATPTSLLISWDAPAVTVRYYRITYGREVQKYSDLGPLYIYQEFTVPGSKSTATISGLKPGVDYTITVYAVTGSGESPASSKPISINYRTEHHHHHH", 8.03),
    ("PCSK9-PKE2 tandem 4472_B03 (designed binder, not shown: The inter-domain linker; In the real molecule the two parts below are one polypeptide joined by this linker) PCSK9 domain: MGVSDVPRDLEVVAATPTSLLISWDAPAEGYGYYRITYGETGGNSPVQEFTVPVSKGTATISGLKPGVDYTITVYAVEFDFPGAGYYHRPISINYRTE PKE2 domain: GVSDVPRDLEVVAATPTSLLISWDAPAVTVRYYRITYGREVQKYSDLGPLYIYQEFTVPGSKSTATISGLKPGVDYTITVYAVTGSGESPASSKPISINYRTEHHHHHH", 8.13),
    ("PCSK9-PKE2 tandem 4472_E06 (designed binder, The real molecule is ONE polypeptide: PCSK9 domain, undisclosed linker I (a code letter), PKE2 domain. It is given here as two chains because the linker letters are unknown., also called 4427_E06; not shown: The inter-domain linker) PCSK9 domain: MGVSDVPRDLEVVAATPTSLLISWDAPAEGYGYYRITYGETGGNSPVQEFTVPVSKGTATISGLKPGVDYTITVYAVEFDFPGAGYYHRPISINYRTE PKE2 domain: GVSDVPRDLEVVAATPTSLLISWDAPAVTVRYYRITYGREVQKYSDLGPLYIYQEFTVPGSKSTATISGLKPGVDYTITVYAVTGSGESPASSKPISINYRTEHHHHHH", 8.12),
]

We now examine a further binder.
Qu. I'd like to know its pIC50. The binder in question is PCSK9-PKE2 tandem 4472_F06 (designed binder, The real molecule is ONE polypeptide: PCSK9 domain, undisclosed linker 'G' (a code letter, not the residue), PKE2 domain. It is given here as two chains because the linker letters are unknown., not shown: The inter-domain linker) PCSK9 domain: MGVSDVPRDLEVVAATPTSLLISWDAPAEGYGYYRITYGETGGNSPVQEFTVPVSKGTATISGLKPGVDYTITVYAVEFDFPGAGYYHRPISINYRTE PKE2 domain: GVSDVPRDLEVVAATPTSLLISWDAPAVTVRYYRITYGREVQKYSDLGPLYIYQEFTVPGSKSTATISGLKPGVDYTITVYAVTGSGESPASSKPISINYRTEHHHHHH
Ans. 8.35
